Reference source: ChEMBL document CHEMBL3832077

# assayDetails: Evaluation of pharmacokinetic parameters for Metronidazole following oral administration of Metronidazole tablets
# Type: ADME, organism-based
# Set-up: dose 250 mg, dose 2000 mg, dose 500 mg, route oral
# testConditions: human, in vivo, dosed compound id 31, dosed compound name METRONIDAZOLE, tissue Plasma
experimentalEndpoint: Tmax

Enquiry: Determine its reported Tmax: Cc1ncc([N+](=O)[O-])n1CCO
Return: 1 to 2 h
